# protocol: Solubility of the saturated solution in aqueous media
# Format: physicochemical
# condition_parameters: McIlvaine buffer, aqueous buffer, thermodynamic from solid; McIlvaine pH 5.0; intrinsic pH 5.1; 48 h shaking at room temperature; read-out: solubility RT - values
observation_type: solubility at 48 h (µg/mL)
Write the number in µg/mL without appending the unit.

Entry CC(C)c1nc2c(c3c1[C@@H](c1ccc(C(F)(F)F)cc1)OC31CCOCC1)[C@@H](O)CC(C)(C)C2.Cl [crystalline hydrochloride salt form] has what solubility at 48 h? 3

###

# protocol: Solubility of the saturated solution in aqueous media
# Assay type: physicochemical
# condition_parameters: McIlvaine buffer, aqueous buffer, thermodynamic from solid; McIlvaine pH 3.0; intrinsic pH 3.0; 48 h shaking at room temperature; read-out: solubility RT - values
observation_type: solubility at 48 h (µg/mL)
Write the number in µg/mL without appending the unit.

Entry CC(C)c1nc2c(c3c1[C@@H](c1ccc(C(F)(F)F)cc1)OC31CCOCC1)[C@@H](O)CC(C)(C)C2.Cl [crystalline hydrochloride salt form] has what solubility at 48 h? 400
